List of apparent KD of MS2 coat protein values.
system: MS2 coat protein; assay: apparent KD of MS2 coat protein; designed switch direction (-1 OFF switch, 1 ON switch): -1; higher = weaker reporter binding; conditions: input ligand: none
Write the number in nM without appending the unit.

>>> quantitative_result("UGGCUUAGAGGAUAUACAUUGAAUAAGAUUCAUGUAAAACUACAUGAGGAUCACCCAUGUAGAAGGCUAGGCCU [Mat - Exclusion 2 - JL Mod - D73] (Eterna round: R97, puzzle: Exclusion 2)")
17.9
>>> quantitative_result("UUAAAUCAUGUAGGAUAUGCGUGGCGAAGCUAUGCAGAAGGACAUGAGGAUCACCCAUGUUCUAGCGUCUGCGAACAGAUGCAA [Mat - Exclusion NG 1 - Mod of JL - D1] (Eterna round: R96, puzzle: Exclusion NG 1)")
16.9
>>> quantitative_result("UGAACCCAUGUUAGGAUAUCAGGCCGAGGAAGUUCUGAGAAGGGACAUGAGGAUCACCCAUGUAUAAAAGAAAC [Veontiinge] (Eterna round: R96, puzzle: Brourd's mod of Exclusion 4)")
51.7
>>> quantitative_result("ACCUCACAUGAGGAUCACCCAUGUCAGGAUAUAAUUUCAAACAUCAAUCGCGGCGCUGAGAGAAGGGUCAAAAC (Eterna round: R97, puzzle: Exclusion 1)")
15.9

Okay, now this sequence:
query: Can you share its apparent KD of MS2 coat protein? I mean this sequence: CUCAGGGUGCAGGAUAUCAUGGGAUAUCCCACCUGAGAAGGGCGAACAUGAGGAUCACCCAUGUGAGUGGGAGA [Eternabot (L2) Solution 85] (Eterna round: R97, puzzle: Exclusion 6)
result: 441

----------
tested on: MS2 coat protein; assay: apparent KD of MS2 coat protein; higher = weaker reporter binding; conditions: Eterna round: R107; input ligand: theophylline 2 mM
experimental-endpoint: apparent KD of MS2 coat protein (nM)
Write the number in nM without appending the unit.

Before answering, review these 3 worked examples.
>>> quantitative_result("GGGUACAUCGCGGCCGCCACUUGUGUAAAUACAUGAGGAUCACCCAUGUCGAUGGAGACAUCGGGAAGGACCGGGUGAUGUACCG")
1200
>>> quantitative_result("CUACAUUUGUAGAAACCGGUCAACAAUAUUCGAGGACCGGUACGGCCGCCACUCGUAUAAUUUAAUACAUGAGGAUCACCCAUGU [Tryptophan A 4]")
17.1
>>> quantitative_result("UUGGGUUUGCGAAGGAGCGGGAAAUAUAUAUAUAUAAUCCUAACAUGAGGAUCACCCAUGUCCCAGGUAGGUCGCGCGGGUUUGG [12.M]")
54.3

query: Can you share its apparent KD of MS2 coat protein? I mean this sequence: UAAUCAGUGCCGGUUCUCGGAUCCUCAUGUCGAGGACCGGUACGGCCGCCACUCGGAACAUGAGGAUCACCCAUGUAAUAAUAAU [#10 Exclusion Tryptophan A]
result: 162

query: Can you share its apparent KD of MS2 coat protein? I mean this sequence: UUCAGCUAGUCGGCCGCCACUACCUGAGGAUCACCCUGGUAGGUCCACACUGCUUCGGCAGUGAGUAGGACCGGGACUAGCUGAG
result: 19

query: Can you share its apparent KD of MS2 coat protein? I mean this sequence: AGACUUCGCAUAGGAAAACUAUGUGAAGUCCGAGGACCGGUACGGCCGCCACUCGUCCUCACAUGAGGAUCACCCAUGUAAAUAA [#OpenEnded 2 #CuTurnoff #Tail]
result: 24.5
